Data provenance is patent US20230263822A1.

Tested on: human Factor 11 mRNA
test: Dose-dependent inhibition of human Factor 11 in HepG2 cells, lipofectin 2.34-75 nM (Example 5)
Assay type: cell-based
Provide the recorded IC50 for the entries that follow.
Give bare numbers, in nM.

Use the examples below as a reference point.
substance	IC50 [nM]
416925 (antisense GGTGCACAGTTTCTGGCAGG; 3-14-3 gapmer chemistry, further chemistry not given here) [compound 416925]	13
416999 (antisense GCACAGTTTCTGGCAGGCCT; 2-13-5 gapmer chemistry, further chemistry not given here) [compound 416999]	14
416825 (antisense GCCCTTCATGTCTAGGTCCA; 5-10-5 gapmer, further chemistry not given here) [compound 416825]	13
416858 (antisense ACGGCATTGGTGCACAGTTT; 5-10-5 gapmer, further chemistry not given here) [compound 416858]	11
416864 (antisense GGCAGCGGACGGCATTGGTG; 5-10-5 gapmer, further chemistry not given here) [compound 416864]	15

Okay, next one:
Q) I am curious: what IC50 value has been reported for 416826 (antisense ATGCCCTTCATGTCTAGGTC; 5-10-5 gapmer, further chemistry not given here) [compound 416826] ?
A) 15

* * *

condition-label: rat, in vivo, sc, 50 mg/kg
Provide the recorded HCT for the entries that follow.
One number for each entry, in %.

substance	meas-value
ISIS 416859: MOE gapmer, nucleobases 1275 to 1318 of SEQ ID NO: 1 (Table 8) (antisense GACGGCATTGGTGCACAGTT; MOE gapmer, wing and gap sizes not given here)	45

// for each substance in input: emit HCT
1. ISIS 416848: MOE gapmer, nucleobases 1275 to 1318 of SEQ ID NO: 1 (Table 8) (antisense CACAGTTTCTGGCAGGCCTC; MOE gapmer, wing and gap sizes not given here)
2. ISIS 416852: MOE gapmer, nucleobases 1275 to 1318 of SEQ ID NO: 1 (Table 8) (antisense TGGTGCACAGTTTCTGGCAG; MOE gapmer, wing and gap sizes not given here)

A)
[35, 42]

Q) I am curious: what HCT value has been reported for ISIS 416863: MOE gapmer, nucleobases 1275 to 1318 of SEQ ID NO: 1 (Table 8) (antisense CAGCGGACGGCATTGGTGCA; MOE gapmer, wing and gap sizes not given here) ?
A) 45

* * *

Test system: Factor 11 activity
test: Factor 11 protein activity, F11 assay based on clotting time (Example 45)
Type: in vivo, cynomolgus monkeys
condition-label: day 22; escalating dose regimen
Procedure: Groups, each consisting of two male and three female monkeys, were injected subcutaneously with ISIS 416838, ISIS 416850, ISIS 416858, ISIS 416864, or ISIS 417002 in escalating doses. […] Body weights were measured weekly. […] Blood samples were collected at various time points and Factor 11 proenzyme was measured using a F11 assay based on clotting time. Clotting times were determined in duplicate with a ST4 semi-automated coagulation instrument (Diagnostica Stago, NJ). […]
Provide the recorded percent inhibition of Factor 11 activity, relative to PBS control for the entries that follow.
Give bare numbers, in %.

// for each substance in input: emit percent inhibition of Factor 11 activity, relative to PBS control
1. ISIS 416858: MOE gapmer, nucleobases 1275 to 1318 of SEQ ID NO: 1 (Table 8) (antisense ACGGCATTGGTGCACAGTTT; MOE gapmer, wing and gap sizes not given here)
2. ISIS 416838: MOE gapmer, nucleobases 1018 to 1042 of SEQ ID NO: 1 (Table 6) (antisense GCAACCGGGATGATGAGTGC; MOE gapmer, wing and gap sizes not given here)
3. ISIS 417002: MOE gapmer, nucleobases 1275 to 1318 of SEQ ID NO: 1 (Table 8) (antisense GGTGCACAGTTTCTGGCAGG; MOE gapmer, wing and gap sizes not given here)

A)
[23, 5, 2]

* * *

test: Hematology assays in cynomolgus monkeys (Example 45)
Type: in vivo
condition-label: day 57; escalating dose regimen
measured-quantity: WBC count (µL⁻¹)
Answers are plain numbers, in µL⁻¹.

Use the examples below as a reference point.
substance	WBC count / µL⁻¹
ISIS 416864: MOE gapmer, nucleobases 1275 to 1318 of SEQ ID NO: 1 (Table 8) (antisense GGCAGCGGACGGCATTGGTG; MOE gapmer, wing and gap sizes not given here)	12000
ISIS 416838: MOE gapmer, nucleobases 1018 to 1042 of SEQ ID NO: 1 (Table 6) (antisense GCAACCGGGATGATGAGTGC; MOE gapmer, wing and gap sizes not given here)	12000
ISIS 417002: MOE gapmer, nucleobases 1275 to 1318 of SEQ ID NO: 1 (Table 8) (antisense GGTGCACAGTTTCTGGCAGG; MOE gapmer, wing and gap sizes not given here)	12000
ISIS 416858: MOE gapmer, nucleobases 1275 to 1318 of SEQ ID NO: 1 (Table 8) (antisense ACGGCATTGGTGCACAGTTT; MOE gapmer, wing and gap sizes not given here)	13000

Q) I am curious: what WBC count value has been reported for ISIS 416850: MOE gapmer, nucleobases 1275 to 1318 of SEQ ID NO: 1 (Table 8) (antisense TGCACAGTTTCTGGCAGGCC; MOE gapmer, wing and gap sizes not given here) ?
A) 11000

* * *

Provide the recorded WBC count for the entries that follow.
test: Hematology assays in cynomolgus monkeys (Example 45)
Format: in vivo
condition-label: day 85; escalating dose regimen
Give bare numbers, in µL⁻¹.

Use the examples below as a reference point.
substance	WBC count, µL⁻¹
ISIS 416864: MOE gapmer, nucleobases 1275 to 1318 of SEQ ID NO: 1 (Table 8) (antisense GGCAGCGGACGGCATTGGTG; MOE gapmer, wing and gap sizes not given here)	12000
ISIS 416850: MOE gapmer, nucleobases 1275 to 1318 of SEQ ID NO: 1 (Table 8) (antisense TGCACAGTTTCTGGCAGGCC; MOE gapmer, wing and gap sizes not given here)	15000

Q) I am curious: what WBC count value has been reported for ISIS 416858: MOE gapmer, nucleobases 1275 to 1318 of SEQ ID NO: 1 (Table 8) (antisense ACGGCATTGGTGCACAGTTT; MOE gapmer, wing and gap sizes not given here) ?
A) 11000

* * *

test: Hematology assays in cynomolgus monkeys (Example 46)
Type: in vivo
condition-label: Day 17
Strand notation (5' to 3'): a small letter for the sugar, then the base; units joined by * are phosphorothioate-linked, units joined directly phosphodiester-linked; [ ] holds rarer units or linkages, { } end groups; capitals alone tell only the bases. e = 2'-O-(2-methoxyethyl) (MOE); [5mC] = 5-methylcytosine; d = 2'-deoxy (DNA)
measured-quantity: neutrophils (%)
One number for each entry, in %.

substance	readout-unit	neutrophils
ISIS 416858: MOE gapmer, nucleobases 1275 to 1318 of SEQ ID NO: 1 (Table 8) (antisense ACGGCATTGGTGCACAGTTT; MOE gapmer, wing and gap sizes not given here)	%	54

Okay, next one:
Q) I am curious: what neutrophils value has been reported for ISIS 449708: 3-8-3, 4-8-4, 2-10-2, 3-10-3 or 4-10-4 MOE microwalk gapmer (Table 46) (antisense eA*e[5mC]*eA*dG*dT*dT*dT*d[5mC]*dT*dG*dG*e[5mC]*eA*eG) ?
A) 61

* * *

Provide the recorded basophils for the entries that follow.
test: Hematology assays in cynomolgus monkeys (Example 45)
Type: in vivo
condition-label: day −14
Give bare numbers, in %.

Use the examples below as a reference point.
substance	basophils [%]
ISIS 416850: MOE gapmer, nucleobases 1275 to 1318 of SEQ ID NO: 1 (Table 8) (antisense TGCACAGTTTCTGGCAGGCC; MOE gapmer, wing and gap sizes not given here)	0.2
ISIS 417002: MOE gapmer, nucleobases 1275 to 1318 of SEQ ID NO: 1 (Table 8) (antisense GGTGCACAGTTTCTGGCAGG; MOE gapmer, wing and gap sizes not given here)	0.3
ISIS 416864: MOE gapmer, nucleobases 1275 to 1318 of SEQ ID NO: 1 (Table 8) (antisense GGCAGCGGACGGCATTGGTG; MOE gapmer, wing and gap sizes not given here)	0.2
ISIS 416838: MOE gapmer, nucleobases 1018 to 1042 of SEQ ID NO: 1 (Table 6) (antisense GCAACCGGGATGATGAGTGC; MOE gapmer, wing and gap sizes not given here)	0.2

Okay, next one:
Q) I am curious: what basophils value has been reported for ISIS 416858: MOE gapmer, nucleobases 1275 to 1318 of SEQ ID NO: 1 (Table 8) (antisense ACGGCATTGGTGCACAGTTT; MOE gapmer, wing and gap sizes not given here) ?
A) 0.3

* * *

test: Liver function, ALT, AST, bilirubin in cynomolgus monkeys (Example 46)
Format: in vivo
condition-label: Day 31; plasma
Strand notation (5' to 3'): a small letter for the sugar, then the base; units joined by * are phosphorothioate-linked, units joined directly phosphodiester-linked; [ ] holds rarer units or linkages, { } end groups; capitals alone tell only the bases. e = 2'-O-(2-methoxyethyl) (MOE); [5mC] = 5-methylcytosine; d = 2'-deoxy (DNA)
measured-quantity: AST

substance	AST
ISIS 449707: 3-8-3, 4-8-4, 2-10-2, 3-10-3 or 4-10-4 MOE microwalk gapmer (Table 46) (antisense e[5mC]*eA*e[5mC]*eA*dG*dT*dT*dT*d[5mC]*dT*dG*dG*e[5mC]*eA*eG*eG)	50 IU/L

Okay, next one:
Q) I am curious: what AST value has been reported for ISIS 449710: 3-8-3, 4-8-4, 2-10-2, 3-10-3 or 4-10-4 MOE microwalk gapmer (Table 46) (antisense e[5mC]*eA*e[5mC]*dA*dG*dT*dT*dT*d[5mC]*dT*dG*dG*d[5mC]*eA*eG*eG) ?
A) 37 IU/L
